# System: SW-620
# protocol summary: NCI tumour cell line growth inhibition, 48 h
The source made the active and inactive calls. No stated cut-off is given here; in the data, active = GI50 up to about 1.1 µM and inactive = higher.
One label from this list, please: active, inactive

Below, 5 compounds whose answers are already recorded.
{"compound": "Cc1ccc(NC(=O)CC2C(=O)Nc3ccccc3[S+]2[O-])cc1C (centres undefined)", "discrete label": "inactive"}
{"compound": "Cc1ccc2c(n1)C(=O)c1ccccc1C2=O", "discrete label": "inactive"}
{"compound": "O=C(c1ccccc1)N1CCN2CCN=C(c3ccccc3)C21c1ccccc1 (centres undefined)", "discrete label": "inactive"}
{"compound": "N#Cc1nc(COCc2ccccc2)oc1N", "discrete label": "inactive"}
{"compound": "COc1cc2oc(=O)ccc2cc1C(=O)CC(C)C", "discrete label": "inactive"}

Challenge: In this assay, the call recorded for CSCCC(N)C(=O)NCCNc1ccc(NCCNC(=O)C(N)CCSC)c2c1C(=O)c1ccccc1C2=O (centres undefined) was what?
Response given: active

Challenge: In this assay, the call recorded for `Cc1c(C)c([N+](=O)[O-])c2c(c1N)C(=O)c1ccccc1C2=O` was what?
Response given: inactive

Challenge: In this assay, the call recorded for `CCc1cc(C(=O)OC)cn1C(=N)c1ccc(Cl)cc1` was what?
Response given: inactive

Challenge: In this assay, the call recorded for `CN(O)C(=O)c1cccc(Cl)c1` was what?
Response given: inactive

Challenge: In this assay, the call recorded for CC1CC2C3CC(F)C4=CC(=O)C=CC4(C)C3(F)C(O)CC2(C)C1(O)C(=O)COC(=O)C(C)(C)C (centres undefined) was what?
Response given: inactive

Challenge: In this assay, the call recorded for C[C@@](O)(/C=C/[C@H]1CC=CC(=O)O1)[C@@H](C[C@@H](O)\C=C/C=C\C=C\CO)OP(=O)(O)O [FOSTRIECIN SODIUM] was what?
Response given: inactive

Challenge: In this assay, the call recorded for `O=C1CSC2(CCN(CCCN3c4ccccc4Sc4ccc(Cl)cc43)CC2)N1` was what?
Response given: inactive

Challenge: In this assay, the call recorded for CC1(C)OC2CN(C(=O)OCc3ccccc3)C(CO)C2O1 (centres undefined) was what?
Response given: inactive

Challenge: In this assay, the call recorded for CN1C(=O)C23CCCC2CC1(c1ccccc1)S3 (centres undefined) was what?
Response given: inactive

meta.source: ChEMBL document CHEMBL1201862
